Listed compounds paired with reported EC50
Molecular target: GPR119 receptor (UniProt Q8TDV5, S309L, species not given)
Test: GPR119 signaling, cyclic AMP (cAMP) homogenous time resolved fluorescence (HTRF) assay
Conditions: CHO cells with Gα15 and murine GPR119, or HEK293 Flp-In cells with human GPR119 S309L; table does not say which; read-out: Activity: inflection points, denoted as EC50 values (agonist activation of GPR119, cAMP)
Where a name gives a salt, the structure may show the parent alone.

- compound: "CC(=O)c1ccc(OCC[C@@H]2C[C@@H]2C2CCN(c3ncc(Cl)cn3)CC2)cc1 (racemic)"
  EC50: "50 to 200 nM"
- compound: "Clc1cnc(N2CCC(C3CC3CCOc3ccc(-n4cccn4)cc3)CC2)nc1 (racemic)"
  EC50: "50 to 200 nM"
- compound: "Cc1nnc(-c2ccc(OCC[C@H]3C[C@H]3C3CCN(c4ccc(C(F)(F)F)cn4)CC3)cc2F)o1 (racemic) [Ex 89, trifluoroacetate]"
  EC50: "< 10 nM"
- compound: "Clc1cnc(N2CCC(C3CC3CCOc3ccc(-n4ccnn4)cc3)CC2)nc1 (racemic)"
  EC50: "< 10 nM"
